- EXPERIMENTAL_SYSTEM: Heat shock protein HSP 90-alpha (Homo sapiens) (UniProt P07900)
- ASSAY_EXPLANATION: Hsp90 blockade concentration-response – dose response (AID 712)
- EXPERIMENTAL_CONDITIONS: Hsp90 inhibition assay
Activity calls are given as the source filed them. No rule for the calls is given here.
Hello, when you answer, please use one of the following outcomes: active, inactive

Each compound tested received a call. Report the one for COc1cc(C2CC(c3ccccc3O)=NN2)ccc1O (configuration not stated) .
inactive

Each compound tested received a call. Report the one for "Cc1noc(C(=O)Nc2ccc3c(c2)OCO3)c1Cl" .
active

Each compound tested received a call. Report the one for "CC(=O)CCCNc1c(OCc2ccccc2)ccc2c(C)cc(=O)oc12" .
inactive

Each compound tested received a call. Report the one for Cc1coc2c(O)cc3c(c12)OC1(N2CCCCC2)C(=O)NCCCC31 (configuration not stated) .
active

Each compound tested received a call. Report the one for "Nc1cc(N)nc(SCCOc2ccccc2F)n1" .
inactive

Each compound tested received a call. Report the one for "Nc1cccc(S(=O)(=O)Nc2ccc(N)c(-c3ccccc3O)c2)c1" .
inactive

Each compound tested received a call. Report the one for "O=[N+]([O-])c1ccc(S(=O)(=O)Nc2cc(OCc3ccccc3)cc3cccnc23)cc1F" .
inactive

----------
- EXPERIMENTAL_SYSTEM: Heat shock protein HSP 90-alpha (Homo sapiens) (UniProt P07900)
- ASSAY_EXPLANATION: Hsp90 blockade concentration-response – dose response (AID 712)
- EXPERIMENTAL_CONDITIONS: Hsp90 inhibition assay
The source made the active and inactive calls. The rule behind the calls is not given here.
Hello, when you answer, please use one of the following outcomes: active, inactive

Each molecule tested received a call. Report the one for CCSc1nnc2c(n1)OC(c1ccc(C(=O)O)cc1)N(C(C)=O)c1ccccc1-2 (configuration not stated) .
inactive

Each molecule tested received a call. Report the one for "Cc1cc(SCC(N)=O)nc(SCC(=O)c2ccccc2)n1" .
inactive

Each molecule tested received a call. Report the one for "CCc1cc(C(=O)Cc2ccc(F)cc2)c(O)cc1O" .
inactive

Each molecule tested received a call. Report the one for O=S(=O)(NC1CCc2ccccc21)c1ccc(S(=O)(=O)N2CCCC2)cc1 (configuration not stated) .
inactive

Each molecule tested received a call. Report the one for "O=[N+]([O-])c1ccc(NS(=O)(=O)c2ccccc2)c(O)c1" .
inactive

Each molecule tested received a call. Report the one for "CC(C)(C)OC(=O)Nc1cccc(NS(=O)(=O)c2cc(Cl)ccc2Cl)c1-c1ccccc1O" .
inactive

Each molecule tested received a call. Report the one for COc1ccc(C2CC(c3ccccc3O)=NN2)cc1OC (configuration not stated) .
inactive

Each molecule tested received a call. Report the one for "O=C(NC1(O)C(=O)c2ccccc2C1=O)c1ccccc1" .
active

Each molecule tested received a call. Report the one for COc1cc(NCCCC(C)N)c2nccc(Cl)c2c1 (configuration not stated) .
active

Each molecule tested received a call. Report the one for "O=C(c1ccc2ccccc2c1)N1CCN(c2ccc(O)cc2)CC1" .
inactive

Each molecule tested received a call. Report the one for "O=C(c1n[nH]c(=O)c2ccccc12)N1CCN(C2c3ccccc3-c3ccccc32)CC1" .
inactive

Each molecule tested received a call. Report the one for "CC(=O)Nc1cnc2ccccc2n1" .
inactive

Each molecule tested received a call. Report the one for "O=S(=O)(c1cccc(-c2nnco2)c1)N1CCCC1" .
inactive

Each molecule tested received a call. Report the one for "CCc1nc(SCC(=O)c2ccc(O)cc2O)n[nH]1" .
inactive

Each molecule tested received a call. Report the one for "COc1cc(NCCCC(C)=O)c2nccc(OCc3ccccc3)c2c1" .
inactive

Each molecule tested received a call. Report the one for "CCCc1cc(-c2[nH]ncc2-c2ccc3c(c2)OCCCO3)c(O)cc1O" .
active

Each molecule tested received a call. Report the one for "Nc1cc(Br)cc2cccnc12" .
inactive

----------
- EXPERIMENTAL_SYSTEM: UniProtKB P07900
- ASSAY_EXPLANATION: Hsp90 blockade concentration-response – dose response (AID 712)
- EXPERIMENTAL_CONDITIONS: Hsp90 inhibition assay
Active and inactive are the calls of the source. No rule for the calls is given here.
Hello, when you answer, please use one of the following outcomes: true (active), false (inactive)

Each molecule tested received a call. Report the one for O=C(OC1CCc2ccccc2C1=O)c1ccccc1O (centres undefined) .
false

Each molecule tested received a call. Report the one for "Nc1nc2c(s1)CCc1c-2cnn1-c1ccccc1" .
true

Each molecule tested received a call. Report the one for CCCC(C)N(CC)CCNc1cc(OC)cc2cccnc12 (centres undefined) .
true

Each molecule tested received a call. Report the one for "Cn1c(=O)c2c(nc(CN3CCc4ccccc4C3)n2CCCO)n(C)c1=O" .
false

----------
Please go through the items and note down their IC50.
- EXPERIMENTAL_SYSTEM: Heat shock protein HSP 90-alpha (Homo sapiens) (UniProt P07900)
- ASSAY_EXPLANATION: Hsp90 blockade concentration-response – dose response (AID 712)
- EXPERIMENTAL_CONDITIONS: Hsp90 inhibition assay
Activity calls are given as the source filed them. The rule behind the calls is not given here.

Which IC50 is reported for this molecule? O=C(NCCN1CCOCC1)NC1(C(F)(F)F)Oc2ccc(Cl)cc2O1 (stereo not drawn)
> 50 µM (inactive)

Which IC50 is reported for this molecule? "Cc1ccc2[nH]c3c(c2c1)CN(C(=O)CN1CCN(c2ccccc2)CC1)CC3"
> 50 µM (inactive)

Which IC50 is reported for this molecule? "COc1ccc(NS(=O)(=O)c2ccccc2)c(OC)c1"
> 50 µM (inactive)

Which IC50 is reported for this molecule? "CCn1c(CSc2nnc(-c3cccnc3)n2-c2ccccc2C)nc2cc(C(=O)O)ccc21"
0.679 µM

Which IC50 is reported for this molecule? "COc1ccc(C(=O)c2c(C)n(C)c(=O)n(C)c2=O)cc1"
> 50 µM (inactive)

Which IC50 is reported for this molecule? CCOC(=O)C1=C(C)OC(N)=C(C(=O)OCC)C1c1cccnc1 (stereo not drawn)
> 50 µM (inactive)

Which IC50 is reported for this molecule? "CCOC(=O)NC1(Nc2ccc(Cl)cn2)Oc2ccccc2O1"
> 50 µM (inactive)

Which IC50 is reported for this molecule? "CCS(=O)(=O)NCc1ccc2[nH]c3c(c2c1)CCCC3"
29.2 µM

Which IC50 is reported for this molecule? "Nc1ccc(NS(=O)(=O)c2cc(Cl)ccc2Cl)cc1-c1ccccc1O"
> 50 µM (inactive)

Which IC50 is reported for this molecule? "Cc1ccc(S(=O)(=O)Nc2ccc(F)c(-c3c(O)ccc4c3OCO4)c2)cc1"
25 µM

Which IC50 is reported for this molecule? "Nc1cc2ccccc2c(O)c1O"
< 1.56 µM

Which IC50 is reported for this molecule? "CCn1c(CSc2nccn2C)nc2cc(C(=O)O)ccc21"
13.4 µM

Which IC50 is reported for this molecule? "Nc1nonc1N1CCCCC1"
> 50 µM (inactive)

----------
- EXPERIMENTAL_SYSTEM: UniProtKB P07900
- ASSAY_EXPLANATION: Hsp90 blockade concentration-response – dose response (AID 712)
- EXPERIMENTAL_CONDITIONS: Hsp90 inhibition assay
Calls of active or inactive are those of the source. How the calls were made is not given here.
Hello, when you answer, please use one of the following outcomes: active, inactive

Each compound tested received a call. Report the one for "COc1ccc(S(=O)(=O)Nc2ccc3c(c2)OCO3)cc1OC" .
inactive

Each compound tested received a call. Report the one for "Oc1ccc2ccccc2c1C=NC12CN3CCN(CN(C3)C1)C2" .
active

Each compound tested received a call. Report the one for "O=C(COc1ccccc1Cl)c1ccc(O)cc1O" .
inactive

Each compound tested received a call. Report the one for "Nc1ccc(CSc2ccc(Cl)cc2)c(O)c1" .
inactive

Each compound tested received a call. Report the one for "Cc1cc(=O)oc2c(N)c(OCc3ccccc3)ccc12" .
inactive

Each compound tested received a call. Report the one for CC(Cc1ccc(O)c(O)c1)C(C)Cc1ccc(O)c(O)c1 (configuration not stated) .
active

Each compound tested received a call. Report the one for "COc1ccc(C2=NO[C@@H]3C(=O)N(c4c(C)cccc4C)C(=O)[C@H]23)cc1OC" .
active

----------
- EXPERIMENTAL_SYSTEM: Heat shock protein HSP 90-alpha (Homo sapiens)
- ASSAY_EXPLANATION: Hsp90 blockade concentration-response – dose response (AID 712)
- EXPERIMENTAL_CONDITIONS: Hsp90 inhibition assay
The source made the active and inactive calls. No rule for the calls is given here.
Hello, when you answer, please use one of the following outcomes: label 1 for active, label 0 for inactive

Each compound tested received a call. Report the one for "O=C1C(C2=C(O)c3ccccc3C2=O)=Nc2ccccc21" .
label 0

Each compound tested received a call. Report the one for "CCOc1ccc(S(=O)(=O)Nc2ccc3c(c2)OCO3)c2cccnc12" .
label 1

Each compound tested received a call. Report the one for "Cc1ccccc1Nc1cc2ccccc2c(=O)[nH]1" .
label 0

Data origin, for the record: PubChem BioAssay AID712
